Biological target: T1, HTRA4, P83105
T1 sequence (P83105 378-476, limits assumed, looked up): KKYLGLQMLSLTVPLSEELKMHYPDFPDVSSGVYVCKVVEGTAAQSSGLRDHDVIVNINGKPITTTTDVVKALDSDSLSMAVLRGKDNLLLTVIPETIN
Assay: holdup assay
Set-up: key: below the threshold = too weak to quantify, mostly under pKd 3.1 to 4
Conditions: plain residues with an end cap or a label only (N-terminal biotin on a linker: ttds)
pKd reference
measurement_label: pKd

>  <binder>
DPRNTQTSQI [ABRAXAS2, Q15018]

>  <measurement_label>
pKd

>  <numeric_value>
3.48

$$$$
>  <binder>
LCALPKVTTV [AGMAT, Q9BSE5]

>  <measurement_label>
pKd

>  <numeric_value>
4.66

$$$$
